biological target: human prominin-1 expressed in E. coli as a 6*HIS fusion protein (human) (UniProt O43490); assay: phage ELISA on plate-coated human prominin-1, HRP-conjugated anti-M13
reported.metric: A450 (A450)
Use A450 as the unit, but write only the number.

binder: scFv clone No. 7, displayed on phage (scFv) scFv: AQAAELDIVLTQSPAIMSASPGEKVTISCSASSSVSYMYWYQQKPGQPPRLLIYLVSNLESGVPARFSGSGSGTDFTLNIHPVEEEDAATYYCQQYHSYPPTFGAGTKLEIKSSGGGGSGGGGGGSSRSSLEVKLVESGPELKKPGETVKISCKASGYTFTDYSMHWVNQAPGKGLKWMGWINTETGEPSYADDFKGRFAFSLETSASTAYLQINNLKNEDTATYFCATDYGDYFDYWGQGTTLTVSSAKTTPPSVTSGQAGQ
A450 (A450): 0.9
--
binder: scFv clone No. 8, displayed on phage (scFv) scFv: AQAAELDIVLTQSPAIMSASPGEKVTISCSASSSVSYMYWYQQKPGSSPKPWIYRPSNLASGVPARFSGSGSGTSYSLTISSMEAEDAATYYCQQYHSYPPTFGAGTKLELKSSGGGGSGGGGGGSSRSSLEVHLVESGPELKKPGETVKISCKASGYTFTDYSMHWVNQAPGKGLKWMGWINTETGEPSYADDFKGRFAFSLETSASTAYLQINNLKNEDTATYFCATDYGDYFDYWGQGTTLTVSSAKTTPPSVTSGQAGQ
A450 (A450): 1
--
binder: scFv clone No. 5, displayed on phage (scFv) scFv: AQAAELDIVLTQSPAIMSASPGEKVTISCSASSSVSYMYWYQQKPGSSPKPWIYRTSNLASGVPARFSGSGSGTSYSLTISSMEAEDAATYYCQQYHSYPPTFGAGTKLELKSSGGGGSGGGGGGSSRSSLEVKLVESGPELKKPGETVKISCKASGYTFTDYSMHWVNQAPGKGLKWMGWINTETGEPSYADDFKGRFAFSLETSASTAYLQINNLKNEDTATYFCATDYGDYFDYWGQGTTLTVSSAKTTPPSVTSGQAGQ
A450 (A450): 1.3
--
binder: scFv clone No. 6, displayed on phage (scFv) scFv: AQAAELDIVLTQSPAIMSASPGEKVTISCSASSSVSYMYWYQQKPGSSPKPWIYRPSNLASGVPARFSGSGSGTSYSLTISSMEAEDAATYYCQQYHSYPPTFGAGTKLELKSSGGGGSGGGGGGSSRSSPEVMLVESGPELKKPGETVKISCKASGYTFTDYSMHWVNQAPGKGLKWMGWINTETGEPSYADDFKGRFAFSLETSASTAYLQINNLKNEDTATYFCATDYGDYFDYWGQGTTLTVSSAKTTPPSVTSGQAGQ
A450 (A450): 1.3

Pending binder:
Req: Identify measured A450 corresponding to scFv clone No. 22, displayed on phage (scFv) scFv: AQAAELDIVLTQSPAIMSASPGEKVTISCSASSSVSYMYWYQQKPGSSPKPWIYRPSNLASGVPARFSGSGSGTSYSLTISSMEAEDAATYYCQQYHSYPPTFGAGTKLELKSSGDGGSGGGGGGSSRSSLEVKLVESGPELKKPGETVKISCKASGYTFTDYSMHWVNQAPGKGLKWMGWINTETGEPSYADDFKGRFAFSLETSASTAYLQINNLKNEDTATYFCATDYGDYFDYWGQGTTLTVSSAKTTAPSVTSGQAGQ
Resp: 1.2

These entries and their values trace back to patent US20130224202A1.
